protocol-summary: photochromic response of test squares on an optical bench (sensitivity, saturation optical density, bleach rate)
Type: physicochemical
condition-description: Method I test square; UV exposure 20 minutes; 75° F. (23.9° C.)
measured-parameter: ΔOD @ SATURATION

>  <compound>
COC(=O)c1c2c(c3ccccc3c1OC(C)=O)OC(c1ccc(N(C)C)cc1)(c1ccc(N(C)C)cc1)C=C2

>  <ΔOD @ SATURATION>
0.07

$$$$
>  <compound>
COC(=O)c1c2c(c3ccccc3c1O)OC(c1ccccc1)(c1ccc(N3CCOCC3)cc1)C=C2 (stereo not shown)

>  <ΔOD @ SATURATION>
1.36

$$$$

Q: Query ΔOD @ SATURATION for COC(=O)c1c2c(c3ccccc3c1OC(C)=O)OC(c1ccccc1)(c1ccc(N(C)C)cc1)C=C2 (stereo not shown)
A: 0.30
